system: YAP-TEAD; assay: Luciferase assay of YAP-TEAD binding inhibition (TEAD luciferase reporter 8XGTIIC in HEK293T cells); assay type: cell-based; conditions: 10 μM, 24 hours, luciferase normalized with β-galactosidase
Provide the reported Inhibition(%) of each item.
Answers are plain numbers, in %.

1. COCCCN1C(=O)c2cccc3c(NC(=O)C4CCCCN4S(=O)(=O)c4cccs4)ccc1c23 (stereo not shown) [Compound 17]: 78
2. CS(=O)(=O)N1CCC(CCN2C(=O)c3cccc4c(NC(=O)C5CCCCN5S(=O)(=O)c5ccco5)ccc2c34)CC1 (stereo not shown) [Compound 139]: 98
3. COCCCN1C(=O)c2cccc3c(NC(=O)C4CCCN(S(=O)(=O)c5c(C)c(C)c6c(c5C)CC(C)(C)O6)C4)ccc1c23 (stereo not shown) [Compound 50]: 63

// next entry
[in] Can you look up Inhibition(%) on YAP-TEAD for COCCCN1C(=O)c2cccc3c(NC(=O)C4CCCCN4S(=O)(=O)c4ccco4)ccc1c23 (stereo not shown) [Compound 160] ?
[out] 53
